TESTED TARGET: Kappa-type opioid receptor (Cavia porcellus)
Sequence (P41144 whole entry): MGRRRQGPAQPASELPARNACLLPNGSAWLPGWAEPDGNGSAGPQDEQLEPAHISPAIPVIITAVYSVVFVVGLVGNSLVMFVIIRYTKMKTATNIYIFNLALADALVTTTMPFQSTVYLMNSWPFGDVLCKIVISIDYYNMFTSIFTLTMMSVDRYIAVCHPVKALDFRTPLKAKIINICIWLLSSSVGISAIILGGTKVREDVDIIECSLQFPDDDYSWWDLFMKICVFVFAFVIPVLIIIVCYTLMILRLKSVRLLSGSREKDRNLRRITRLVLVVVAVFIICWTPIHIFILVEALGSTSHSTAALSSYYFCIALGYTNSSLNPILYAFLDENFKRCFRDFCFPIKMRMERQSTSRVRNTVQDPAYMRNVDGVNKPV
RUN DESCRIPTION: Displacement of [3H]-Ethylketazocine from kappa opioid receptor in guinea pig brain membranes after 40 mins
Assay type: cell membranes, Membrane
RESULT TYPE: pKi
Numbers only, as −log10 of the molar value.

Asked: So what does the record say about pKi for C=CC[N+]1(C)CC[C@]23c4c5ccc(O)c4O[C@H]2C(=O)CC[C@@]3(O)[C@H]1C5 (stereo partly specified) [NALOXONE METHIODIDE] ?
Given back: 6.73

###

TESTED TARGET: Kappa-type opioid receptor (Homo sapiens)
Sequence (P41145 whole entry): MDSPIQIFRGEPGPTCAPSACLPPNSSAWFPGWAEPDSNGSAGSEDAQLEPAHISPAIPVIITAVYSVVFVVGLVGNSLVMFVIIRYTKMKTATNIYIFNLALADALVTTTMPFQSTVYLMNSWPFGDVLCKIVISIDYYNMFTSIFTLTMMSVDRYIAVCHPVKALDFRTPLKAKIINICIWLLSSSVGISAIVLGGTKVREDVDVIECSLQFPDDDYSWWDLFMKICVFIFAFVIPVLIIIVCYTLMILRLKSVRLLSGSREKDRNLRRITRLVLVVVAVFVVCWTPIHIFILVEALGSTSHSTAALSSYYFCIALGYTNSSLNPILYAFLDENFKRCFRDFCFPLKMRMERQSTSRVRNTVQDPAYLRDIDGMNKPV
RESULT TYPE: Ki

Asked: So what does the record say about Ki for O=C(OCCN1CCOCC1)C1(c2ccccc2)CCCCC1 ?
Given back: > 4 µM

###

TESTED TARGET: Kappa-type opioid receptor (Cavia porcellus)
RUN DESCRIPTION: Displacement of [3H]U69,593 from kappa opioid receptor in guinea pig brain membranes by liquid scintillation counter method
Format: cell membranes, Membrane
RESULT TYPE: Ki
Express the reported value numerically, then name its unit.

Asked: Observed Ki on Kappa-type opioid receptor (Cavia porcellus) for C[C@@H]1[C@@H]2Cc3ccc(O)cc3[C@@]1(C)CCN2CCc1ccccc1 , please.
Given back: 175 nM

###

TESTED TARGET: Sigma non-opioid intracellular receptor 1 (Mus musculus)
Sequence (O55242 whole entry): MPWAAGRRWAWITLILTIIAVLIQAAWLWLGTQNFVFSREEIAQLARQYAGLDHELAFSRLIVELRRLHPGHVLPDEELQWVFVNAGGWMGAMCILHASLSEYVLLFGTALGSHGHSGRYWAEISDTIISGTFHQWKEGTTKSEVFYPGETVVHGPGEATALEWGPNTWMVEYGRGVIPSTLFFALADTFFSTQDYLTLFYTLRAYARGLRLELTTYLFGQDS
RUN DESCRIPTION: Displacement of [3H]-(+)-pentazocin from sigma1 receptor in mouse brain P2 membranes after 240 mins by liquid scintillation counting method
RESULT TYPE: Ki

Asked: Observed Ki on Sigma non-opioid intracellular receptor 1 (Mus musculus) for C=CC[N+]1(C)CC[C@]23c4c5ccc(O)c4O[C@H]2C(=O)CC[C@@]3(O)[C@H]1C5 (stereo partly specified) [NALOXONE METHIODIDE] , please.
Given back: > 1 µM

###

TESTED TARGET: Delta-type opioid receptor (Rattus norvegicus, UniProt P33533)
Sequence (P33533 whole entry): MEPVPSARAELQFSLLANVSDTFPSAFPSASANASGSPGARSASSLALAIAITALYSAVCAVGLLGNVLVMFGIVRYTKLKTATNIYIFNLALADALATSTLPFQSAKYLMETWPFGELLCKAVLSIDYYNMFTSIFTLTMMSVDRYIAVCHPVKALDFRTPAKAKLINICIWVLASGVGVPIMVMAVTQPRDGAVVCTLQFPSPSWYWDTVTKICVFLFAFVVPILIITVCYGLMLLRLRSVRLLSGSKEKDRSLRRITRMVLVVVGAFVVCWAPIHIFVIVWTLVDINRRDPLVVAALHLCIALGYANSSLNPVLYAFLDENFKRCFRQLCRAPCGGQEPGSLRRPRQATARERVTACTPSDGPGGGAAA
RUN DESCRIPTION: Displacement of [3H]DPDPE from delta opioid receptor in Sprague-Dawley rat brain membranes by liquid scintillation counter method
RESULT TYPE: pKi
Give bare numbers, as −log10 of the molar value.

Asked: So what does the record say about pKi for C[C@@H]1[C@@H]2Cc3ccc(O)cc3[C@@]1(C)CCN2CCc1ccccc1 ?
Given back: 6.91

###

TESTED TARGET: Mu-type opioid receptor (Rattus norvegicus)
Sequence (P33535 whole entry): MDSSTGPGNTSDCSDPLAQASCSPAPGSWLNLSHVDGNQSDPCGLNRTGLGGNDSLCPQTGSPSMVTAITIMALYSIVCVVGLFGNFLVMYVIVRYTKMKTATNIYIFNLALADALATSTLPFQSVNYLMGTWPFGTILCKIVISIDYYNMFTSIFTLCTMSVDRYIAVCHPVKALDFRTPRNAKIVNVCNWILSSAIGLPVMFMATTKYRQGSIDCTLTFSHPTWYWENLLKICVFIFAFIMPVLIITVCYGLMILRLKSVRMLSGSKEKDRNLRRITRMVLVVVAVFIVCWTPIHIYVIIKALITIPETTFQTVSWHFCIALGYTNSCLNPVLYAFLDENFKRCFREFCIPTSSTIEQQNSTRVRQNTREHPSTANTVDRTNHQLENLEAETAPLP
RUN DESCRIPTION: Displacement of [3H] DAMGO from mu opioid receptor in Sprague-Dawley rat whole brain membranes after 2.5 hrs by liquid scintillation method
Hi there, I'd appreciate the recorded pKi for every entry that follows.
Give bare numbers, as −log10 of the molar value.

C[C@@H]1[C@@H]2Cc3ccc(O)cc3[C@@]1(C)CCN2CCc1ccccc1 = 8.41

Here's the next entry for you.
Asked: So what does the record say about pKi for C[C@H]1[C@H]2Cc3ccc(O)cc3[C@]1(C)CCN2CCc1ccccc1 ?
Given back: 7.21

###

RUN DESCRIPTION: Displacement of [3H]-[D-Ala2,D-Leu5]enkephalin from delta opioid receptor in guinea pig brain membranes after 40 mins
Type: cell membranes, Cavia porcellus, Membrane
RESULT TYPE: Ki
Express the reported value numerically, then name its unit.

Asked: So what does the record say about Ki for C=CC[N+]1(C)CC[C@]23c4c5ccc(O)c4O[C@H]2C(=O)CC[C@@]3(O)[C@H]1C5 (stereo partly specified) [NALOXONE METHIODIDE] ?
Given back: 291 nM

Data origin, for the record: ChEMBL document CHEMBL4000164
